Source of measurements: paper PMC4599338

Items are presented alongside their recorded pKd.
Target: Vaccinia Virus, Western Reserve, L1R Protein with C-Terminal Histidine Tag, Recombinant from baculovirus (Vaccinia virus, Western Reserve, UniProt P07612)
Assay: SPR; […] (100 to 0 nM, […], dissociation 600 s; […]; Langmuir model; […]
Settings: both partners purified
Scale: pKd equals -log10([C]), with [C] in mol/L.

Study these solved cases before continuing.
sdAb clone L1-G2+ (VHH) VHH: EVQLQASGGGLVQAGGSLRLSCTASGRAFSTTNMGWFRQAPGKEREFVCRVNWSGGVTSYADSVKGRFTCSRDNTKNTVYLQMDSLKPEDTAVYYCAGSTVWSTDRKHYNYWGQGTQVTVSS    8.62
sdAb clone L1-G2 (VHH) VHH: EVQLQASGGGLVQAGGSLRLSCTASGRAFSTTNMGWFRQAPGKEREFVTRVNWSGGVTSYADSVKGRFTLSRDNTKNTVYLQMDSLKPEDTAVYYCAGSTVWSTDRKHYNYWGQGTQVTVSS    8.96
sdAb clone L1-G2+neg2 (VHH) VHH: EVQLVESGGGLVQDGDSLRLSCTASGRAFSTTNMGWFRQAPGKEREFVCRVNWSGGVTSYADSVKGRFTCSADNTKNTVYLQMDSLKPEDTAVYYCAGSTVWSTDRKHYNYWGQGTQVTVSS    7.64

Consider now this further binder.
Entry sdAb clone L1-G2+neg (VHH) VHH: EVQLVESGGGLVQDGDSLRLSCTASGRAFSTTNMGWFRQAPGKEREFVCRVNWSGGVTSYADSVKGRFTCSRDNTKNTVYLQMDSLKPEDTAVYYCAGSTVWSTDRKHYNYWGQGTQVTVSS , pKd reported as 8.48
